target: the molecule itself; assay: SEC
attribute-measured: stoichiometry N
Answer field: number only, no words.

Solved cases (2 shown):
Y110E Cox11-Trx (domain or fragment, Rhodobacter sphaeroides, UniProt P56940 32-191, looked up) NWFCRVTGFAGTTAVATEAPAEVLDRTVKVRFDASREAGMPWEFRPLQREMKLKIGETGLAFYEAYNPTDRTVAGTASENVTPDAAGGYFAKIACFCFTEQVLAPGERVEMPVTFYVDPAIIDDPDGRYVRQITLSYTFHETALTEEQAALAAESATDVN; 4
Y110R Cox11-Trx (domain or fragment, Rhodobacter sphaeroides, UniProt P56940 32-191, looked up) NWFCRVTGFAGTTAVATEAPAEVLDRTVKVRFDASREAGMPWEFRPLQREMKLKIGETGLAFYEAYNPTDRTVAGTASRNVTPDAAGGYFAKIACFCFTEQVLAPGERVEMPVTFYVDPAIIDDPDGRYVRQITLSYTFHETALTEEQAALAAESATDVN; 4

Query block: Which stoichiometry N is listed for K123L Cox11-Trx (domain or fragment, Rhodobacter sphaeroides, UniProt P56940 32-191, looked up) NWFCRVTGFAGTTAVATEAPAEVLDRTVKVRFDASREAGMPWEFRPLQREMKLKIGETGLAFYEAYNPTDRTVAGTASYNVTPDAAGGYFALIACFCFTEQVLAPGERVEMPVTFYVDPAIIDDPDGRYVRQITLSYTFHETALTEEQAALAAESATDVN ?
Result block: 2

Query block: Which stoichiometry N is listed for K123L-E131K Cox11-Trx (domain or fragment, Rhodobacter sphaeroides, UniProt P56940 32-191, looked up) NWFCRVTGFAGTTAVATEAPAEVLDRTVKVRFDASREAGMPWEFRPLQREMKLKIGETGLAFYEAYNPTDRTVAGTASYNVTPDAAGGYFALIACFCFTKQVLAPGERVEMPVTFYVDPAIIDDPDGRYVRQITLSYTFHETALTEEQAALAAESATDVN ?
Result block: 2

Query block: Which stoichiometry N is listed for Cox11 domain of R. sphaeroides Cox11-Trx after cleavage from Trx (domain or fragment, Rhodobacter sphaeroides, UniProt P56940 32-191, looked up) NWFCRVTGFAGTTAVATEAPAEVLDRTVKVRFDASREAGMPWEFRPLQREMKLKIGETGLAFYEAYNPTDRTVAGTASYNVTPDAAGGYFAKIACFCFTEQVLAPGERVEMPVTFYVDPAIIDDPDGRYVRQITLSYTFHETALTEEQAALAAESATDVN ?
Result block: 4
